Would you kindly list Selectivity = IC50-(NCl/ADR): IC50-(MCF-7) for each of these molecules?
test system: NCl/ADR; test: growth inhibition of multi-drug-resistant NCl/ADR carcinoma cell line, crystal-violet assay; assay type: cell-based, human; conditions: Table 3, ratio NCl/ADR to MCF-7
Field format: numeric only.

Enquiry: Give recorded Selectivity = IC50-(NCl/ADR): IC50-(MCF-7). C#CCC[C@H]1C(=O)C(C)(C)[C@@H](O)CC(=O)O[C@H](/C(C)=C/c2ccccn2)C[C@@H]2OC2(C)CCC[C@H](C)[C@@H]1O (single isomer, unassigned)
Return: 15.8

Enquiry: Give recorded Selectivity = IC50-(NCl/ADR): IC50-(MCF-7). C=CC[C@H]1C(=O)C(C)(C)[C@@H](O)CC(=O)O[C@H](/C(C)=C/c2csc(C)n2)C[C@H]2O[C@]2(C)CCC[C@H](C)[C@@H]1O [Example 12A or B]
Return: 1.5

Enquiry: Give recorded Selectivity = IC50-(NCl/ADR): IC50-(MCF-7). C=CC[C@H]1C(=O)C(C)(C)[C@@H](O)CC(=O)O[C@H](/C(C)=C/c2csc(C)n2)CC2O[C@@]2(C)CCC[C@H](C)[C@@H]1O (single isomer, unassigned) [Example 12B or A]
Return: 11.0

Enquiry: Give recorded Selectivity = IC50-(NCl/ADR): IC50-(MCF-7). C#CC[C@H]1C(=O)C(C)(C)[C@@H](O)CC(=O)O[C@H](/C(F)=C/c2csc(C)n2)C[C@@H]2O[C@@]2(C)CCC[C@H](C)[C@@H]1O [Example 26A or B]
Return: 3.3

The origin of these recorded values is patent US20100168179A1.
